- TGT: HRH4 (Homo sapiens, UniProt Q9H3N8)
- Construct: Eurofins Discover X, USA
- Sequence (Q9H3N8 whole entry): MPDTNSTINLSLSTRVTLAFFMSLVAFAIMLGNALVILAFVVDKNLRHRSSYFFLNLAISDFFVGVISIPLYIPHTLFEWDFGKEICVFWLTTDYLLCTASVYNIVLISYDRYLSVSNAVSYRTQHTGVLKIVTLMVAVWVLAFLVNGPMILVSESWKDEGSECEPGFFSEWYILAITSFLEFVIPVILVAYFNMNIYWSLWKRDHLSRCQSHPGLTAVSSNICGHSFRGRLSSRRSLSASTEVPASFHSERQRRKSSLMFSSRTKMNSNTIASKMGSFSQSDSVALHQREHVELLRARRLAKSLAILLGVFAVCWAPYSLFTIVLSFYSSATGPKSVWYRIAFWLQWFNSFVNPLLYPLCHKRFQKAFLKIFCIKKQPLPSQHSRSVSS
- METHOD NOTES: β-arrestin GPCR internalization assay
- Type: cell-based
- CONDITION: assay format: Inverse agonist; read-out: RC50 (EC50)
RECORDED METRIC: EC50

// query I'd like to know its EC50. The compound in question is Cc1cccc(Cc2c[nH]cn2)c1C [detomidine]
// result > 100 µM

----------
- TGT: HRH4 (Homo sapiens, UniProt Q9H3N8)
- Construct: Eurofins Discover X, USA
- METHOD NOTES: β-arrestin GPCR internalization assay
- CONDITION: assay format: Antagonist; read-out: RC50 (IC50)
RECORDED METRIC: IC50

// query # query: IC50 | item Cc1cccc(Cc2c[nH]cn2)c1C | system: HRH4 (Homo sapiens, UniProt Q9H3N8)
// result > 100 µM

Cited source: patent US11185532B2
